- system_tested: hD2L receptor (Homo sapiens)
- Construct: purchased BioSignal Packard Inc., Montreal, Canada
- Sequence (P14416 whole entry): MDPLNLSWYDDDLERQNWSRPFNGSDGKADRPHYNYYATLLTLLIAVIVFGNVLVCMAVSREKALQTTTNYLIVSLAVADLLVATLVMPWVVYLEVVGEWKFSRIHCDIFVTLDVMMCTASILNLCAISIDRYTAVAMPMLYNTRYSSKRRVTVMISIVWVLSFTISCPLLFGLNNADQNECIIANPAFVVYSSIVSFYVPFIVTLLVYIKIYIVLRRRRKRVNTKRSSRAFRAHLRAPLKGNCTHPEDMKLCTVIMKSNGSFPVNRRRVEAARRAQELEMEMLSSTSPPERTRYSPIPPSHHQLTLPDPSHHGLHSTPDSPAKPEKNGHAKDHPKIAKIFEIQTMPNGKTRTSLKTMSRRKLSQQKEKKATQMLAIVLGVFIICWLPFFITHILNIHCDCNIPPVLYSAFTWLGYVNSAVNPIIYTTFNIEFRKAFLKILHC
- procedure_summary: Radioligand binding, dopamine D2 ([3H]spiperone)
- condition_details: read-out: Binding affinity (Inhibition rate % at 10 μM) D2
observation_type: inhibition at 10 µM

[[record]]
compound = "COc1ccc(C2(C)C(=O)Nc3cc(OC)cc(Cl)c3C2=O)cc1 (stereo not shown)"
result_value = "5.1%"

[[record]]
compound = "COc1ccc(C2(C)C(=O)Nc3cc(Cl)cc(Cl)c3C2=O)cc1[N+](=O)[O-] (stereo not shown)"
result_value = "10.5%"

[[record]]
compound = "CN1CCN(c2cc(Cl)c3c(c2)NC(=O)C(C)(c2ccc(N)cc2)C3=O)CC1 (stereo not shown)"
result_value = "19.6%"

[[record]]
compound = "CC1(c2ccc(O)c([N+](=O)[O-])c2)C(=O)Nc2cc(Cl)cc(Cl)c2C1=O (stereo not shown)"
result_value = "11.2%"

[[record]]
compound = "C[C@H](NC(=O)Nc1cccc([C@@]2(C)C(=O)Nc3cc(Cl)cc(Cl)c3C2=O)c1)c1ccccc1"
result_value = "5.7%"

[[record]]
compound = "CC1(c2ccc([N+](=O)[O-])cc2)C(=O)Nc2cc(Cl)ccc2C1=O (stereo not shown)"
result_value = "8.3%"

[[record]]
compound = "CC1(c2ccc([N+](=O)[O-])cc2)C(=O)Nc2cc(Cl)c(Cl)cc2C1=O (stereo not shown)"
result_value = "16.5%"


---

Each item that follows carries a reported inhibition at 10 µM.
- system_tested: hD2L receptor (Homo sapiens)
- Construct: purchased BioSignal Packard Inc., Montreal, Canada
- procedure_summary: Radioligand binding, dopamine D2 ([3H]spiperone)
- condition_details: read-out: Binding affinity (Inhibition rate % at 10 μM) D2
observation_type: inhibition at 10 µM (%)

[[record]]
molecule = "COc1ccc(NS(=O)(=O)c2sc3ccc(Cl)cc3c2C)cc1N1CCNCC1 [SB-271046, reference compound]"
system_tested = "hD2L receptor (Homo sapiens)"
observation_type = "inhibition at 10 µM"
result_value = 17.3

[[record]]
molecule = "CC1(c2ccccc2)C(=O)Nc2cc(Cl)c(Cl)cc2C1=O (centres unmarked)"
system_tested = "hD2L receptor (Homo sapiens)"
observation_type = "inhibition at 10 µM"
result_value = 8.2

[[record]]
molecule = "CC1(c2ccc(Cl)cc2)C(=O)Nc2cc(Cl)cc(Cl)c2C1=O (centres unmarked)"
system_tested = "hD2L receptor (Homo sapiens)"
observation_type = "inhibition at 10 µM"
result_value = 7.5

[[record]]
molecule = "CC1(c2ccc(O)c(N)c2)C(=O)Nc2c(Br)cc(Br)cc2C1=O (centres unmarked)"
system_tested = "hD2L receptor (Homo sapiens)"
observation_type = "inhibition at 10 µM"
result_value = 18.5

[[record]]
molecule = "CC1(c2ccc(O)c(O)c2)C(=O)Nc2ccccc2C1=O (centres unmarked)"
system_tested = "hD2L receptor (Homo sapiens)"
observation_type = "inhibition at 10 µM"
result_value = 16


---

- system_tested: hD3 receptor (Homo sapiens)
- Construct: purchased BioSignal Packard Inc., Montreal, Canada
- Sequence (P35462 whole entry): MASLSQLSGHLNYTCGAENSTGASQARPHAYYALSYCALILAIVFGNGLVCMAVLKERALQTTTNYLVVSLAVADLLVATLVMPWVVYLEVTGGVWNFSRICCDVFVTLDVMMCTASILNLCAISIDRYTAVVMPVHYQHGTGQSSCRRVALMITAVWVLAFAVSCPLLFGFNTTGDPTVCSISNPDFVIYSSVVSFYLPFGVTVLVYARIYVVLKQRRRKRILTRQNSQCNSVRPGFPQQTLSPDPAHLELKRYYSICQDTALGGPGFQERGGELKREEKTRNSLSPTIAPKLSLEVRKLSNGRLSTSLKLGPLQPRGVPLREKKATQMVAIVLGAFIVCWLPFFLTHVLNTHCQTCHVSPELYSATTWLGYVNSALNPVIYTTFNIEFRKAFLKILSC
- procedure_summary: Radioligand binding, dopamine D3 ([3H]spiperone)
- condition_details: read-out: Binding affinity (Inhibition rate % at 10 μM) D3
Returns one of Y or N; Y when inhibition at 10 µM is >= 10%.

[[record]]
compound = "CN1CCN(c2cc(Cl)c3c(c2)NC(=O)C(C)(c2ccc(N)cc2)C3=O)CC1 (centres unmarked)"
qualitative_label = "N"

[[record]]
compound = "CC1(c2cccc(O)c2)C(=O)Nc2cc(Cl)cc(Cl)c2C1=O (centres unmarked)"
qualitative_label = "Y"

[[record]]
compound = "COc1ccc(C2(C)C(=O)Nc3cc(N4CCN(C)CC4)cc(Cl)c3C2=O)cc1 (centres unmarked)"
qualitative_label = "Y"

[[record]]
compound = "COc1ccc(C2(C)C(=O)Nc3cc(OC)cc(Cl)c3C2=O)cc1 (centres unmarked)"
qualitative_label = "N"

[[record]]
compound = "CC1(c2ccc(Br)cc2Br)C(=O)Nc2cc(Cl)cc(Cl)c2C1=O (centres unmarked)"
qualitative_label = "Y"


---

Each item that follows carries a reported IC50.
- system_tested: human serotonin 5-HT6 receptor (Homo sapiens)
- Construct: made in house; host or cells: Sf21 insect cells (pBacPAK8 baculovirus vector)
- Sequence (P50406 whole entry): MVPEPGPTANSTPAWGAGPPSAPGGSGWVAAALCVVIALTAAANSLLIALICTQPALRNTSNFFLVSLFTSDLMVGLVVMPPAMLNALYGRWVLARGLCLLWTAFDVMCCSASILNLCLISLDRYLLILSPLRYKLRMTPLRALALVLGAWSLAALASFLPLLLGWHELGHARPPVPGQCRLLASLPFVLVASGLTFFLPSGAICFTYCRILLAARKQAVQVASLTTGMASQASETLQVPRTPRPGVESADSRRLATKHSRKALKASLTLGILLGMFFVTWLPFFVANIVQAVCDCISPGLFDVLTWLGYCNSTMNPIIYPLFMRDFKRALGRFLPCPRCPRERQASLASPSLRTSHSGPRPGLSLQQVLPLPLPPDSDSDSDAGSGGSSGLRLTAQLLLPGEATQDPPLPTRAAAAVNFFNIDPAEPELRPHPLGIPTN
- procedure_summary: [3H]LSD binding at cloned 5-HT6 receptors
- condition_details: [3H]LSD 1.87 nM, cloned receptor membranes, 37° C., 60 min; read-out: IC50
observation_type: IC50 (µM)

[[record]]
compound = "CN1CCN(c2cc(Cl)c3c(c2)NC(=O)C(C)(c2ccc(O)cc2)C3=O)CC1 (stereo not drawn) [Example 47]"
result_value = 1.06

[[record]]
compound = "CN(C)c1ccc(C2(C)C(=O)Nc3cc(Cl)cc(Cl)c3C2=O)cc1 (stereo not drawn) [Example 40]"
result_value = 0.563

[[record]]
compound = "CN(C)c1cc(Cl)c2c(c1)NC(=O)C(C)(c1ccccc1)C2=O (stereo not drawn) [Example 11]"
result_value = 1.16

[[record]]
compound = "CN1CCN(c2ccc3c(c2)NC(=O)C(C)(c2ccc(N)cc2)C3=O)CC1 (stereo not drawn) [Example 50]"
result_value = 0.942

[[record]]
compound = "COc1cc(Cl)cc2c1C(=O)C(C)(c1ccccc1)C(=O)N2 (stereo not drawn) [Example 6]"
result_value = 0.428

[[record]]
compound = "COc1ccc(C2(C)C(=O)Nc3cc(Cl)cc(Cl)c3C2=O)cc1[N+](=O)[O-] (stereo not drawn) [Example 21]"
result_value = 1.23

[[record]]
compound = "CN1CCN(c2ccc3c(c2)NC(=O)C(C)(c2ccc([N+](=O)[O-])cc2)C3=O)CC1 (stereo not drawn) [Example 51]"
result_value = 0.904

[[record]]
compound = "COc1ccc(C2(C)C(=O)Nc3ccccc3C2=O)cc1 (stereo not drawn) [Example 33]"
result_value = 0.487

[[record]]
compound = "CC1(c2ccc([N+](=O)[O-])cc2)C(=O)Nc2cc(Cl)c(Cl)cc2C1=O (stereo not drawn) [Example 36]"
result_value = 0.645


---

- system_tested: 5-HT1a (Homo sapiens, UniProt P08908)
- Construct: purchased Euroscreen/BioSignal Packard Inc
- Sequence (P08908 whole entry): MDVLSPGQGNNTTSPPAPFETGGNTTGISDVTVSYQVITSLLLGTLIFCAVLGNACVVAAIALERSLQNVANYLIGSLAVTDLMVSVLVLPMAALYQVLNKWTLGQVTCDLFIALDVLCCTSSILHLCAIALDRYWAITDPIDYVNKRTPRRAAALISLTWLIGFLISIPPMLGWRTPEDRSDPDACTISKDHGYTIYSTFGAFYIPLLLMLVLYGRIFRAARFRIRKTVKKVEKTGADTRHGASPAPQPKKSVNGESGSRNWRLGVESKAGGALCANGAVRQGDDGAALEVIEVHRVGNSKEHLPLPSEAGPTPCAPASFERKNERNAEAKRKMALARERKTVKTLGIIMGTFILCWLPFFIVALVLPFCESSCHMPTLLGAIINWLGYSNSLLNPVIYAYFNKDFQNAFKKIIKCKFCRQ
- procedure_summary: Radioligand binding, 5-HT1a ([3H]8-OH-DPAT)
- condition_details: read-out: Binding affinity (Inhibition rate % at 10 μM) 5HT1a
Returns one of Yes or No; Yes when inhibition at 10 µM is >= 40%.

[[record]]
compound = "CC1(c2ccccc2)C(=O)Nc2cc(Cl)cc(Cl)c2C1=O (stereo not drawn)"
qualitative_label = "No"

[[record]]
compound = "CC1(c2ccc(O)c([N+](=O)[O-])c2)C(=O)Nc2cc(Cl)cc(Cl)c2C1=O (stereo not drawn)"
qualitative_label = "Yes"

[[record]]
compound = "CC1(c2ccc([N+](=O)[O-])cc2)C(=O)Nc2cc(Cl)c(Cl)cc2C1=O (stereo not drawn)"
qualitative_label = "Yes"

[[record]]
compound = "CC1(c2ccc(O)c(O)c2)C(=O)Nc2ccccc2C1=O (stereo not drawn)"
qualitative_label = "No"

[[record]]
compound = "C[C@H](NC(=O)Oc1ccc(C2(C)C(=O)Nc3cc(Cl)cc(Cl)c3C2=O)cc1)c1ccccc1 (stereo partly drawn)"
qualitative_label = "No"

[[record]]
compound = "C[C@H](NC(=O)Nc1cccc([C@]2(C)C(=O)Nc3cc(Cl)cc(Cl)c3C2=O)c1)c1ccccc1"
qualitative_label = "No"

[[record]]
compound = "COc1ccc(C2(C)C(=O)Nc3cc(OC)cc(Cl)c3C2=O)cc1 (stereo not drawn)"
qualitative_label = "Yes"


---

Each item that follows carries a reported IC50.
- system_tested: human serotonin 5-HT6 receptor (Homo sapiens)
- Construct: made in house; host or cells: Sf21 insect cells (pBacPAK8 baculovirus vector)
- procedure_summary: [3H]LSD binding at cloned 5-HT6 receptors
observation_type: IC50

[[record]]
compound = "C[C@H](NC(=O)Oc1cccc(C2(C)C(=O)Nc3cc(Cl)cc(Cl)c3C2=O)c1)c1ccccc1 (some centres unmarked) [Example 26]"
observation_type = "IC50"
result_value = "980 nM"

[[record]]
compound = "C[C@H](NC(=O)Oc1ccc(C2(C)C(=O)Nc3cc(Cl)cc(Cl)c3C2=O)cc1)c1ccccc1 (some centres unmarked) [Example 25]"
observation_type = "IC50"
result_value = "816 nM"


---

Each item that follows carries a reported inhibition at 10 µM.
- system_tested: 5-HT2a (Homo sapiens)
- Construct: purchased Euroscreen/BioSignal Packard Inc
- Sequence (P28223 whole entry): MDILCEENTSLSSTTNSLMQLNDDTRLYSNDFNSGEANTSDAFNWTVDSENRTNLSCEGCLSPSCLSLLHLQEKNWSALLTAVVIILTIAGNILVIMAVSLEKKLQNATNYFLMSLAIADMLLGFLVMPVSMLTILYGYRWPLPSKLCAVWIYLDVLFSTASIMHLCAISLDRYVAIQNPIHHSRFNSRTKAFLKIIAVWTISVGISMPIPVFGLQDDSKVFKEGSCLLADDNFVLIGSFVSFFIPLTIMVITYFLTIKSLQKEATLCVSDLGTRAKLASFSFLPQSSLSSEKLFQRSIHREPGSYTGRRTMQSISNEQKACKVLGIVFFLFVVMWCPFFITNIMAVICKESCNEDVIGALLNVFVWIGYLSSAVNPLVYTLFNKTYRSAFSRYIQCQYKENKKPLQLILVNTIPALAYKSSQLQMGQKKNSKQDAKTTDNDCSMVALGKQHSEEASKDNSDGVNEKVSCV
- procedure_summary: Radioligand binding, 5-HT2a ([3H]Ketanserin)
- condition_details: read-out: Binding affinity (Inhibition rate % at 10 μM) 5HT2a
observation_type: inhibition at 10 µM (%)

[[record]]
compound = "COc1ccc(C2(C)C(=O)Nc3ccccc3C2=O)cc1 (centres unmarked)"
result_value = 10.7

[[record]]
compound = "CN(C)c1ccc(C2(C)C(=O)Nc3cc(Cl)cc(Cl)c3C2=O)cc1 (centres unmarked)"
result_value = 42.2

[[record]]
compound = "CN1CCN(c2cc(Cl)c3c(c2)NC(=O)C(C)(c2ccc([N+](=O)[O-])cc2)C3=O)CC1 (centres unmarked)"
result_value = 33.4

[[record]]
compound = "CC1(c2ccc(Cl)cc2)C(=O)Nc2cc(Cl)cc(Cl)c2C1=O (centres unmarked)"
result_value = 30.2

[[record]]
compound = "COc1ccc(C2(C)C(=O)Nc3cc(Cl)cc(Cl)c3C2=O)cc1 (centres unmarked)"
result_value = 8.5

